src = patent US10703746B2

- test system: IDH1 R132H (Homo sapiens, UniProt O75874, R132H)
- Sequence (O75874 whole entry R132H): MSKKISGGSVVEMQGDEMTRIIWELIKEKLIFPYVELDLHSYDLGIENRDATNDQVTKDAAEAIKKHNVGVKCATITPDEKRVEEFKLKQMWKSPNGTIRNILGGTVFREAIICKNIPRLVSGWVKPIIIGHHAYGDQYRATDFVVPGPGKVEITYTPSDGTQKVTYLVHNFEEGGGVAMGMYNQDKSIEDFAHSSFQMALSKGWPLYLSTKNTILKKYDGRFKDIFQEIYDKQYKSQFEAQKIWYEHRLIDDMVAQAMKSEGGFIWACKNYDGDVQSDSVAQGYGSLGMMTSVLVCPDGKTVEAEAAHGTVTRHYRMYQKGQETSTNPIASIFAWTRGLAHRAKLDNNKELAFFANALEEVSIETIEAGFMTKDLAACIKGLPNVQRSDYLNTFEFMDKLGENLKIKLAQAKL
- measurement description: IDH1 R132H enzymatic assay (NADPH depletion coupled to diaphorase/resazurin)
- Format: biochemical
- test context: IDH1 R132H enzymatic inhibition, IC50 class
- Experimental: Assays were conducted in a 1536-well black solid-bottom plate with a final assay volume of 9 μL. Specifically, for IDH1 R132H, 3 μL of enzyme (4 mM β-ME, 0.0005 mg/mL IDH1 R132H, 150 mM NaCl, 20 mM Tris pH 7.5, 10 mM MgCl2, 0.05% BSA) were added to the plate, followed by the addition of 23 nL of test compound in DMSO. […]
pIC50: −log10 of the molar value.
property name: pIC50

Below, 3 molecules whose answers are already recorded.
molecule	pIC50
CCc1cccc(CC)c1-n1c(C=C(C)C)c(C(=O)N2CCC(NC)CC2)cc(-c2nc(-c3ccc(Cl)cc3)cs2)c1=O [Compound 623]	> 6.52
CCc1cccc(CC)c1-n1c(CC(C)C)c(C(=O)N2[C@H](C)CNC[C@@H]2C)cc(-c2nc(-c3ccc(Cl)cc3)cs2)c1=O [Compound 61]	6.00 to 6.52
CCOc1ccc(Cl)cc1-n1c(C=C(C)C)c(C(=O)N2CCNCC2)cc(-c2nc(-c3ccc(C(F)(F)F)cc3)cs2)c1=O [Compound 665]	> 6.52

INPUT: Note pIC50 for the molecule shown: CCc1cccc(CC)c1-n1c(C=C(C)C)c(C(=O)N2CCNCC2)cc(-c2nc(-c3ccc(Cl)cn3)cs2)c1=O [Compound 377]
OUTPUT: > 6.52

INPUT: Note pIC50 for the molecule shown: CCc1cccc(CC)c1-n1c(C=C(C)C)c(C(=O)N2CCNC(C(F)(F)F)C2)cc(-c2nc(-c3ccc(Cl)cc3)cs2)c1=O (stereo not drawn) [Compound 396]
OUTPUT: > 6.52

INPUT: Note pIC50 for the molecule shown: Cn1nccc1-n1c2c(cc(-c3nc(-c4ccc(Cl)cc4)cs3)c1=O)C(=O)CC(C)(C)C2 [Compound 382]
OUTPUT: 4.70 to 5.30

INPUT: Note pIC50 for the molecule shown: CCc1cccc(CC)c1-n1c(CC(C)C)c(C(=O)N2CCNCC2)cc(-c2nc(-c3ccc(C(N)=O)cc3)c(C)s2)c1=O [Compound 307]
OUTPUT: 4.70 to 5.30

INPUT: Note pIC50 for the molecule shown: CCc1cccc(CC)c1-n1c(C(C)C)c(C(=O)N2CCN[C@H](C(=O)O)C2)cc(-c2nc(-c3ccc(Cl)cc3)cs2)c1=O [Compound 264]
OUTPUT: 6.00 to 6.52

INPUT: Note pIC50 for the molecule shown: Cc1cccc(O)c1-n1c2c(cc(-c3nc(-c4ccc(Cl)cc4)cs3)c1=O)C(=O)CC(C)(C)C2 [Compound 246]
OUTPUT: 5.30 to 6.00
